Where do these numbers come from? They come from paper PMC5540273.

- Tested on: GRK4;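 further: KINOMEscan kinase panel screen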
- CONDITION_CONTEXT: concentration: 1 μM, replicates: in singlicate; n = 1
MEASURED_PROPERTY: %Inh (%)

>>> numeric_result("Cc1cccc(Nc2nc(N[C@H]3CCCC[C@H]3N)ncc2C(N)=O)c1.Cl")
6
>>> numeric_result("Cc1ccc(NC(=O)c2ccc(Cl)c(Cl)c2)cc1-c1ccc(C(=O)Nc2ccncc2)cc1")
4
>>> numeric_result("Cc1ccc(Nc2ccnc(Nc3ccc(C)c(F)c3)n2)cc1O.Cl")
0
>>> numeric_result("COc1cccc(NC(=O)NCCNc2ccnc(Nc3ccc(F)cc3)n2)c1")
0
>>> numeric_result("COc1cccc(C2=C(Nc3cccc(O)c3)C(=O)NC2=O)c1")
0
>>> numeric_result("Cn1cc(-c2cnc(N)c3c(-c4ccc5c(c4)CCN5C(=O)Cc4ccccc4)csc23)cn1")
7
>>> numeric_result("CS(=O)(=O)c1cccc(CNc2nc(Nc3ccc4c(c3)CCC(=O)N4)ncc2C(F)(F)F)c1")
0
>>> numeric_result("COc1ccc(C2=C(Nc3cccc(O)c3)C(=O)NC2=O)cc1")
0
>>> numeric_result("Nc1cccc(-c2ccc3c(N)n[nH]c3c2)c1")
9
>>> numeric_result("Cc1ccccc1CC(=O)N1CCc2cc(-c3cn(C)c4ncnc(N)c34)ccc21")
0
>>> numeric_result("CN(c1ccc2c(c1)nc(NCc1ccccc1)n2C)c1ccnc(Nc2ccc(CS(C)(=O)=O)cc2)n1.Cl")
33
>>> numeric_result("Cl.Cl.NCC(NC(=O)c1cc(-c2cccnc2)c(-c2ccnc3[nH]ccc23)s1)c1ccccc1 (stereo not drawn)")
4
>>> numeric_result("Cn1cc(-c2ccc3c(c2)CCN3C(=O)Cc2cc(F)cc(C(F)(F)F)c2)c2c(N)ncnc21")
3
>>> numeric_result("CC(C)c1nc(-c2cccc(NS(=O)(=O)c3c(F)cccc3F)c2)c(-c2ccnc(Nc3ccc(N4CCOCC4)nc3)n2)s1.Cl")
0
>>> numeric_result("Cc1ccc(O)cc1Nc1ccnc2cc(-c3ccc(CN4CCCCC4)o3)ccc12")
13
>>> numeric_result("CN(C)CCOc1ccc(-c2cc(-c3ccc(Cl)c(O)c3)c(-c3ccncc3)[nH]2)cc1.Cl.Cl")
0
>>> numeric_result("Cc1nn2c(=O)cc(N3CCO[C@H](C)C3)nc2n1Cc1cccc(Cl)c1Cl")
3
>>> numeric_result("CCNc1nccc(-c2c(-c3ccc(F)cc3)ncn2C2CCN(C)CC2)n1")
0
>>> numeric_result("O=C(Nc1n[nH]c2nc(-c3cccc(O)c3)ccc12)C1CC1")
24
>>> numeric_result("Cl.Cl.NC(CNC(=O)c1cc(Br)c(-c2ccnc3[nH]ccc23)s1)c1ccccc1 (stereo not drawn)")
76
>>> numeric_result("Cc1ccc(O)cc1Nc1ccnc2ccc(C(C)(C)C)cc12")
17
>>> numeric_result("Cc1ccc(NC(=O)c2cccc(N3CCCCC3)c2)cc1-c1ccc(C(=O)NCC2CC2)cc1")
10
>>> numeric_result("Nc1ncc(-c2ccc3nccc(-c4ccncc4)c3c2)cc1S(=O)(=O)N1CCCCC1")
8
>>> numeric_result("CN(c1ccc(F)c(NC(=O)c2cccc(OC(C)(C)C#N)c2Cl)c1)c1ccc2nc(NC(=O)C3CC3)sc2n1")
4
>>> numeric_result("Cc1cc(-c2c(-c3ccc(F)cc3)ncn2CCCN2CCOCC2)nc(N)n1")
20
>>> numeric_result("Cl.O=C(Nc1ccc(Oc2ccc3[nH]c(NC(=O)c4ccco4)nc3c2)cc1)Nc1cc(C(F)(F)F)ccc1F")
100
>>> numeric_result("O=C(Nc1n[nH]c2nc(-c3ccccc3O)ccc12)C1CC1")
28
